- ASSAY_SYSTEM: Adrenergic receptor alpha-2 (Homo sapiens, UniProt P08913+P18825+P18089)
- Sequence (P08913 whole entry): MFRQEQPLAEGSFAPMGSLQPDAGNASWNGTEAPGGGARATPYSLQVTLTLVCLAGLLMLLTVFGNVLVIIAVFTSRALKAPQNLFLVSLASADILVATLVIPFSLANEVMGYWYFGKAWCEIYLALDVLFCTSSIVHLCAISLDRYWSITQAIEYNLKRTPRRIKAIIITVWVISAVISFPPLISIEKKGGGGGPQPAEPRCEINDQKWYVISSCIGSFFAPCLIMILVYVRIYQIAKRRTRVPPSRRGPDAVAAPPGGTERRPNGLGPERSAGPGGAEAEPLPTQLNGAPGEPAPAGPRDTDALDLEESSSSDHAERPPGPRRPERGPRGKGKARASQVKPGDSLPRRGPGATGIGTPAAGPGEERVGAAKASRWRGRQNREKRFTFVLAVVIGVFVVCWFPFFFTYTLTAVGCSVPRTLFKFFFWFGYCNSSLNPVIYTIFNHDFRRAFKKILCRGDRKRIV
- Sequence (P18825 whole entry): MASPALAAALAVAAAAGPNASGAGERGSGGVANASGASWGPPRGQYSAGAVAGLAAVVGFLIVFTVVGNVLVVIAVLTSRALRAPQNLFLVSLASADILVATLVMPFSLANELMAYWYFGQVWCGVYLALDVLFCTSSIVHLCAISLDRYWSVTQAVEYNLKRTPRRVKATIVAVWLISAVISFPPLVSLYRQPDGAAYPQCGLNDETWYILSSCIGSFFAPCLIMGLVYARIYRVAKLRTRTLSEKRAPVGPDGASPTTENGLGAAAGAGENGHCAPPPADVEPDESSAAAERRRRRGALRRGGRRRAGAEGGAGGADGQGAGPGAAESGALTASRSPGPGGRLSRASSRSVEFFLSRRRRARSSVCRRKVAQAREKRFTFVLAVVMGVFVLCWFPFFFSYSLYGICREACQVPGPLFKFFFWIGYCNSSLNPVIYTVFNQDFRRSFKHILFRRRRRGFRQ
- Sequence (P18089 whole entry): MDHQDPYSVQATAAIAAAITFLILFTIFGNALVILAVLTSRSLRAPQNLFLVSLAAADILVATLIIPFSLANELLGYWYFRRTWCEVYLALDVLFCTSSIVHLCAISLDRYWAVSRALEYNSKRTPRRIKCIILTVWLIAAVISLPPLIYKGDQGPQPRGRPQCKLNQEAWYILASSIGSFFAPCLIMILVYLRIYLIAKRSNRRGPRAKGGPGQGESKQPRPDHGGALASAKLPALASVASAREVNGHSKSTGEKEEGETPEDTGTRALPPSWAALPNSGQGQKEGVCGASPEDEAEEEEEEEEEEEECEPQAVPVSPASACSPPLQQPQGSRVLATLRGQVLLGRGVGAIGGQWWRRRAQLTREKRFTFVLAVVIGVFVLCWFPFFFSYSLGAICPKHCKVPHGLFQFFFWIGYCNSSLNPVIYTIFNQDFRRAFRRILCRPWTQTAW
- EXPERIMENT_NOTES: Concentration required for inhibition of alpha-2 adrenergic receptor
- Format: protein assay
EXPERIMENTAL_ENDPOINT: IC50

Please review the following examples before continuing.
1. COc1cc(N)c(Cl)cc1C(=O)NCC1C2CC3CC1CN(C3)C2 (stereo in doubt; 9c) ... > 10 µM
2. COc1cc(N)c(Cl)cc1C(=O)N[C@@H]1C2CC3CN(C2)CC31 (some centres undefined) ... > 10 µM
3. COc1cc(N)c(Cl)cc1C(=O)NC1C2CC3CC1CN(C3)C2 (stereo in doubt; 9b) ... > 10 µM

Let us examine a further case.
Quick check: IC50 of COc1cc(N)c(Cl)cc1C(=O)NC1C2CC3CC1CN(C3)C2 (stereo in doubt; 9a) ? 6.4 µM
